I'd appreciate it if you could supply ELISA IC50 ratio values for the items below.
Tested System: T1, recombinant human lymphotoxin-α (LTα), homotrimer LTα3 (human, UniProt P01374 35-205)
T1 construct: One molecule is used for 'LTα' (plate ELISA), 'rhLTα' (BIACORE, phage ELISA) and 'human LTα3'; also called human LTα3; rhLTα
T1 sequence (looked up): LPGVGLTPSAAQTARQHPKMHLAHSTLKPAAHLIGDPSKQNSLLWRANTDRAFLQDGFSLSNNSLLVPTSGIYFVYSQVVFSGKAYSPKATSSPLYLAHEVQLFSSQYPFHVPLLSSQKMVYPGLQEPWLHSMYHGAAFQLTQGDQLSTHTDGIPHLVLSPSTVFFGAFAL
Assay Info: plate-based ELISA on human LTα, ratio to the chimera
Answers are plain numbers.

See these solved cases before continuing.
Binder	ELISA IC50 ratio
humanized 2C8.v12 (antibody, V domains shown, HC v12 = HC v2 + A67F); also called Version 12) VH: EVQLVESGGGLVQPGGSLRLSCAASGYTFTSYVIHWVRQAPGKGLEWVGYNNPYNDGTNYNEKFKGRFTISSDKSKNTAYLQMNSLRAEDTAVYYCSRPTMLPWFAYWGQGTLVTVSS VL: DIQMTQSPSSLSASVGDRVTITCRASQAVSSAVAWYQQKPGKAPKLLIYSASHRYTGVPSRFSGSGSGTDFTLTISSLQPEDFATYYCQQHYSTPWTFGQGTKVEIKR	1
humanized 2C8.v7 (antibody, V domains shown) VH: EVQLVESGGGLVQPGGSLRLSCAASGYTFTSYVIHWVRQAPGKGLEWVGYNNPYNDGTNYNEKFKGRATISSDKSKNTAYLQMNSLRAEDTAVYYCSRPTMLPWFAYWGQGTLVTVSS VL: DIQMTQSPSSLSASVGDRVTITCRASQAVSSAVAWYQQKPGKAPKLLIYSASHRYTGVPSRFSGSGSGTDFTLTISSLQPEDFATYYCQQHYSTPWTFGQGTKVEIKR	1.2

Give the measured ELISA IC50 ratio of humanized 2C8.v16 (antibody, V domains shown, HC v12 = HC v2 + A67F) VH: EVQLVESGGGLVQPGGSLRLSCAASGYTFTSYVIHWVRQAPGKGLEWVGYNNPYNDGTNYNEKFKGRFTISSDKSKNTAYLQMNSLRAEDTAVYYCSRPTMLPWFAYWGQGTLVTVSS VL: DIQMTQSPSSLSASVGDRVTITCRASQAVSSAVAWYQQKPGKAPKLLIYSASHRYTGVPSRFSGSGSGTDFTLTISSLQPEDFATYYCQESYSTPWTFGQGTKVEIKR .
0.6
